Assay: Pharmacokinetic analysis of vepafestinib in rats (microdialysis PFC, CSF, plasma)
Type: in vivo, male Han Wistar rats
Conditions: male, Han Wistar, rat, cerebrospinal fluid, oral, 3 mg/kg; 480 min; individual rats; read-out: Concentration in Rats, Cerebrospinal fluid
Quantity name: concentration at 480 min (nM)

- Sample smiles: "COCc1ccc(NC(=O)c2c(C#CCN3CCOCC3)n(C3(C)CC3)c3ncnc(N)c23)cc1"
  Quantity name: "concentration at 480 min"
  Measure unit: "nM"
  Reported value: 8.78

---

Target: KIF5B–RET WT (Homo sapiens)
Construct: Fusion of the RET kinase domain with several N-terminal partners such as kinesin family 5B (KIF5B); KIF5B (N-terminal fusion partner)
Sequence (P07949 713-1063 limits assumed): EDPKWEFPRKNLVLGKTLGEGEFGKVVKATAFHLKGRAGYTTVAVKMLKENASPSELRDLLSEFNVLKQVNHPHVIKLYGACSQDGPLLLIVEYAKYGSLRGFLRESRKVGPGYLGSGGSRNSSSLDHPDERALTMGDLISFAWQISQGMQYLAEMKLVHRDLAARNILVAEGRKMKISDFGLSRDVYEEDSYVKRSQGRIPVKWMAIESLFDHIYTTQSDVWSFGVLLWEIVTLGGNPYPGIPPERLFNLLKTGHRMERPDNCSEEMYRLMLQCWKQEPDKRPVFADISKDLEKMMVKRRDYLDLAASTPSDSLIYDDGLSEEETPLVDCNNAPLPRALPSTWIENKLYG
Assay: In-cell western assay of RET autophosphorylation
Conditions: Jump-In GripTite HEK293, 1 h, phospho-RET (Y905)/RET

- Compound: "C[C@H]1CNC(=O)c2cnn3cc4c(nc23)N(Cc2cc(F)cnc2O1)[C@@H]1CCC[C@@H]1O4 [TPX-0046]"
  Measure unit: "µM"
  IC50: 0.0219

---

Tested on: TT cells
Test: Growth inhibition (alamarBlue, 96 h)
Type: cell-based, human
Details: Homo sapiens, 96 h, read-out: IC50 for Inhibition of Growth (95% CI)
pIC50: −log10 of the molar value.

- Compound: "COCc1ccc(NC(=O)c2c(C#CCN3CCOCC3)n(C3(C)CC3)c3ncnc(N)c23)cc1 [Vepafestinib]"
  pIC50: 7.62
- Compound: "CO[C@]1(C(=O)N[C@@H](C)c2ccc(-n3cc(F)cn3)nc2)CC[C@H](c2nc(C)cc(Nc3cc(C)[nH]n3)n2)CC1 [Pralsetinib]"
  pIC50: 7.52
- Compound: "COc1ccc(CN2C3CC2CN(c2ccc(-c4cc(OCC(C)(C)O)cn5ncc(C#N)c45)cn2)C3)cn1 [Selpercatinib]"
  pIC50: 7.64

---

Molecular target: KIF5B–RET G736A (Homo sapiens, UniProt P07949, G736A)
Construct: Fusion of the RET kinase domain with several N-terminal partners such as kinesin family 5B (KIF5B); KIF5B (N-terminal fusion partner)
Assay: In-cell western assay of RET autophosphorylation
Settings: Jump-In GripTite HEK293 cells, one hour; Mean
pIC50: −log10 of the molar value.
Quantity name: pIC50

- Compound: "C[C@H]1CNC(=O)c2cnn3cc4c(nc23)N(Cc2cc(F)cnc2O1)[C@@H]1CCC[C@@H]1O4 [TPX-0046]"
  Reported value: 8.49

---

Molecular target: KIF5B–RET E732K (Homo sapiens, UniProt P07949, E732K)
Construct: Fusion of the RET kinase domain with several N-terminal partners such as kinesin family 5B (KIF5B); KIF5B (N-terminal fusion partner)
Sequence (P07949 713-1063 E732K limits assumed): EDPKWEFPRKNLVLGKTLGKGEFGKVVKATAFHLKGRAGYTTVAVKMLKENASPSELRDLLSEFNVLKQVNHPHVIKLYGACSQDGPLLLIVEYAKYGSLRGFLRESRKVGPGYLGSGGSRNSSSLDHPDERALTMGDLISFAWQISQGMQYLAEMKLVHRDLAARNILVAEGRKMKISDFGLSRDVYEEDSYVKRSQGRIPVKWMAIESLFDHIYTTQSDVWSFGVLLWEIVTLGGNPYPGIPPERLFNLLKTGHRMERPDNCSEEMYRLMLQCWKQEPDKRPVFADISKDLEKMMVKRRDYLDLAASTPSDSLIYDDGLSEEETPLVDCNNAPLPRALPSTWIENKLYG
Experiment: In-cell western assay of RET autophosphorylation
Conditions: Jump-In GripTite HEK293 cells, one hour; Mean
pIC50: −log10 of the molar value.
Quantity name: pIC50

- Sample smiles: "C[C@H]1CNC(=O)c2cnn3cc4c(nc23)N(Cc2cc(F)cnc2O1)[C@@H]1CCC[C@@H]1O4"
  Reported value: 7.83

---

Assay: Pharmacokinetic analysis of vepafestinib in rats (microdialysis PFC, CSF, plasma)
Type: in vivo, male Han Wistar rats
Details: male, Han Wistar, rat, plasma (total), oral, 3 mg/kg; 180 min; individual rats; read-out: Concentration in Rats, Plasma (total)
Quantity name: concentration at 180 min (nM)

- Sample smiles: "COCc1ccc(NC(=O)c2c(C#CCN3CCOCC3)n(C3(C)CC3)c3ncnc(N)c23)cc1"
  Quantity name: "concentration at 180 min"
  Reported value: 445

---

Test: Pharmacokinetic analysis of vepafestinib in rats (microdialysis PFC, CSF, plasma)
Format: in vivo, male Han Wistar rats
Conditions: male, Han Wistar, rat, prefrontal cortex microdialysate, oral, 50 mg/kg; 120 min; individual rats; read-out: Concentration in Rats, Prefrontal cortex

- Compound: "COCc1ccc(NC(=O)c2c(C#CCN3CCOCC3)n(C3(C)CC3)c3ncnc(N)c23)cc1 [Vepafestinib]"
  concentration at 120 min [nM]: 972

---

Molecular target: recombinant human RET (Homo sapiens)
Assay: RET^WT kinase-inhibition assay (LANCE TR-FRET)
Settings: 10 μM ATP

- Compound: "C[C@H]1CNC(=O)c2cnn3cc4c(nc23)N(Cc2cc(F)cnc2O1)[C@@H]1CCC[C@@H]1O4 [TPX-0046]"
  IC50 [pM]: 260

Hello, the source for this data is paper PMC10518257, in case you need it.
